measurement protocol: drug combination growth inhibition, ovarian cancer – cell-based, oncology-focused library, rucaparib conditional, profiling panel (AID 1508598)
condition summary: patient-derived ovarian cancer cells, CellTiter-Glo viability, 144 h; at 0.00122 µM; OCI-P5x cells; with rucaparib 20 µM; hits give low values; 100% = cells with rucaparib alone
Attribute: viability
Numbers only here, please. The scale is %.

# count of solved cases: 8
{"structure": "CCN1CCN(Cc2ccc(-c3cc4c(N[C@H](C)c5ccccc5)ncnc4[nH]3)cc2)CC1", "outcome measure": "viability", "units text": "%", "measurement": 100}
{"structure": "COc1cc(OC)c(/C=C/S(=O)(=O)Cc2ccc(OC)c(NCC(=O)O)c2)c(OC)c1", "outcome measure": "viability", "units text": "%", "measurement": 102}
{"structure": "CC(C)OC(=O)C1=CN(C(=O)c2ccc(F)c(F)c2)CC(C)(C)c2c1[nH]c1ccccc21", "outcome measure": "viability", "units text": "%", "measurement": 117}
{"structure": "Nc1nccc(Oc2ccc(NC(=O)c3c[nH]cc(-c4ccc(F)cc4)c3=O)cc2F)c1Cl", "outcome measure": "viability", "units text": "%", "measurement": 101}
{"structure": "C=CCn1c(=O)c2cnc(Nc3ccc(N4CCN(C)CC4)cc3)nc2n1-c1cccc(C(C)(C)O)n1", "outcome measure": "viability", "units text": "%", "measurement": 102}
{"structure": "Cc1ccc(NC(=O)c2cccc(C(C)(C)C#N)c2)cc1Nc1ccc2ncn(C)c(=O)c2c1", "outcome measure": "viability", "units text": "%", "measurement": 107}
{"structure": "N#CCNC(=O)c1ccc(-c2ccnc(Nc3ccc(N4CCOCC4)cc3)n2)cc1", "outcome measure": "viability", "units text": "%", "measurement": 105}
{"structure": "Cc1ccc(-c2csc(NC(=O)c3ccccc3)n2)c(C)c1", "outcome measure": "viability", "units text": "%", "measurement": 99.9}

Could you now consider this next compound?
What measured viability goes with `COc1nc(C)cnc1NS(=O)(=O)c1cccnc1-c1ccc(-c2nnco2)cc1` ?
106
